Provenance of the data: PubChem BioAssay

The following molecules are shown together with reported GFP response vs DMSO values.
EXPERIMENT SUMMARY: TOR pathway GLN3 branch reporter MEP2-GFP changes – S. cerevisiae, multiplex flow cytometry, primary screen (AID 1867);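 note: median GFP channel fluorescence of barcode-gated MEP2-GFP cells measured by flow cytometry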
MEASUREMENT CONDITIONS: S. cerevisiae MEP2-GFP strain, 3 h, at 10 µM, stronger effect = higher value, 100% means same as DMSO wells
Inconclusive results are not listed.
Field format: number, assumed %, no unit text.

# MOLECULE, READOUT UNIT, GFP response vs DMSO
data = [
    ("O=C(O)C1[C@H]2C(=O)N(C3CCCC3)C[C@]23C=C[C@H]1O3 (some centres not stated)", "%", 104),
    ("N#Cc1cc2c([nH]c1=O)CCCC2", "%", 98.3),
    ("COc1ccc2nc(S(=O)Cc3ncc(C)c(OC)c3C)[nH]c2c1 (configuration not stated)", "%", 105),
    ("O=C1CC2(CCCC2)CC(=O)N1CCCCN1CCN(c2ncccn2)CC1", "%", 104),
    ("CCC(CO)NCCNC(CC)CO (configuration not stated)", "%", 139),
    ("Cc1cccc(N2CCN(C(=S)c3ccccc3)CC2)c1", "%", 108),
    ("COc1ccc(NC(=O)N2CCCCC2c2cccnc2)cc1 (configuration not stated)", "%", 105),
    ("Clc1ccc2c(c1)CCc1cccnc1C2=C1CCNCC1", "%", 109),
]

Reported GFP response vs DMSO for `Cc1ccccc1NC(=O)c1c(C)cc(=O)oc1C` was 101

GFP response vs DMSO reported for this molecule `c1ccc(Nc2ccccn2)nc1` : 105

So, CC(=O)OC1c2c(ccc3ccc(=O)oc23)OC(C)(C)C1OC(=O)CC(C)C (configuration not stated) ? Its GFP response vs DMSO was 99.3

The reported GFP response vs DMSO of the molecule `N/C(Cc1ccc(Cl)cc1Cl)=N\OC(=O)c1ccc(Br)o1` was 128

* * *

ASSAYED TARGET: Beta-adrenergic receptor kinase 1 (Homo sapiens)
EXPERIMENT SUMMARY: GRK2 binders displacing RNA aptamer, biochemical, validation, human GRK2, bead flow cytometry (AID 488806)
MEASUREMENT CONDITIONS: bead-bound GRK2, FAM-aptamer displacement, at 10 µM, stronger effect = higher value
VALUE KIND: aptamer binding inhibition (%)
Value expressed in %; do not type the unit.

# MOLECULE, RESULT
data = [
    ("COc1cc2c(cc1OC)CN(Cc1ccc(C)s1)CC2", 4),
]

Let me check: `CC(=O)OCC(=O)[C@@]1(O)CC[C@H]2[C@@H]3CCC4=CC(=O)C=C[C@]4(C)[C@H]3[C@@H](O)C[C@@]21C` , system Beta-adrenergic receptor kinase 1 (Homo sapiens), measured aptamer binding inhibition is 1

Log: Beta-adrenergic receptor kinase 1 (Homo sapiens), molecule COCC1CCCN(Cc2cn[nH]c2-c2cc3ccccc3o2)C1 (stereo unspecified) , aptamer binding inhibition = 2

The molecule C=CCOC(=O)C1=C(C)NC(=O)NC1/C=C/c1ccccc1OC (stereo unspecified) , tested on Beta-adrenergic receptor kinase 1 (Homo sapiens), showed aptamer binding inhibition of 1

So the reported aptamer binding inhibition for `COc1ccc(S(=O)(=O)NCc2ccco2)c2ccccc12` , on Beta-adrenergic receptor kinase 1 (Homo sapiens), turned out to be 3

Beta-adrenergic receptor kinase 1 (Homo sapiens) aptamer binding inhibition of `CCc1ccc(CN(C)Cc2nc(Cc3ccccc3)no2)nc1` is 4

Let me check: `CC(C)N1C(=O)/C(=C\c2nc3ccccc3c(=O)[nH]2)c2ccccc21` , system Beta-adrenergic receptor kinase 1 (Homo sapiens), measured aptamer binding inhibition is 6

Record COc1ccc(CCN2C(=O)CSC2c2ccc(OC)c(OC)c2)cc1OC (stereo unspecified) ; system Beta-adrenergic receptor kinase 1 (Homo sapiens); aptamer binding inhibition = 2

Let me check: `Cc1cc(=O)c2c(O)c(O)ccc2o1` , system Beta-adrenergic receptor kinase 1 (Homo sapiens), measured aptamer binding inhibition is -4

Assay Beta-adrenergic receptor kinase 1 (Homo sapiens), sample Cc1ccc(CN2CCN(CCCc3ccccc3)CC2CCO)cc1 (stereo unspecified) , aptamer binding inhibition read: 1

Cc1ncoc1C(=O)N1CCCC(C(=O)c2ccc(-c3ccccc3)c(F)c2)C1 (stereo unspecified) tested on Beta-adrenergic receptor kinase 1 (Homo sapiens) gave aptamer binding inhibition: 8

* * *

The following compounds are listed with their measured double positive events values.
EXPERIMENT SUMMARY: reduced mouse 2C T cell binding to pMHC/ICAM-1 vesicles – MLPCN validation set, flow cytometry, LFA-1/ICAM-1 modulator project, pilot screen (AID 2523)
MEASUREMENT CONDITIONS: 2C mouse CD8+ T cells, at 7 µM, stronger effect = lower value; measured here: CD8+/vesicle+ event percentage
Lab book: enter the figure in %, no units written.

Would you please look over these solved cases?
# COMPOUND, RESULT
measured = [
    ("O=C(N1CCCC1)C12CC3CC(C1)CC(C(=O)N1CCCC1)(C3)C2", 59.6),
    ("CC[C@]1(O)CC2CN(CCc3c([nH]c4ccccc34)[C@@](C(=O)OC)(c3cc4c(cc3OC)N(C=O)[C@H]3[C@@](O)(C(=O)OC)[C@H](OC(C)=O)[C@]5(CC)C=CCN6CC[C@]43[C@@H]65)C2)C1 (stereo partly specified)", 61.8),
    ("CC1(C)S[C@@H]2[C@H](NC(=O)Cc3ccccc3)C(=O)N2[C@H]1C(=O)O", 66.2),
    ("COc1ccccc1/C=C/C(=O)OCCN1CCOCC1", 56.7),
    ("COCCNC(=O)CSc1ccc(Cl)cc1", 62.8),
]

`CCNC(=O)c1c(N)sc2c1CCCCC2` yielded double positive events of 63.8

* * *

EXPERIMENT SUMMARY: calorie-restriction mimetic ROS inhibitors, yeast – validation compound set, pilot screen (AID 2706);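 note: yeast exposed to compound for one week at 30 degrees C before staining; 100% = mean of all compound wells on the same plate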
MEASUREMENT CONDITIONS: S. cerevisiae aging, superoxide DHE fluorescence; at 10 µM; stronger effect = lower value
Below is a list of entries, each paired with its recorded superoxide response (% of plate) value.
Number in %, nothing else.

# COMPOUND, superoxide response (% of plate) [%]
data = [
    ("CC(=O)Nc1ccc(CN2CCN(C3CCCCC3)C(CCO)C2)cc1 (stereo not drawn)", 102),
    ("COc1ccc(C(=O)Oc2ccc3c(C)cc(=O)oc3c2C(C)=O)cc1", 103),
    ("CC(C)CCNC(=O)[C@H](CC(C)C)NC(=O)[C@H]1O[C@@H]1C(=O)O", 96.2),
    ("CCOC(=O)C1C(=O)OC2(CCOC(C)(C)C2)C1C(=O)OCC (stereo not drawn)", 102),
    ("CC12CN3CC(C)(CN(C1)C3c1ccc(Cl)cc1Cl)C2=O (stereo not drawn)", 98.9),
]

The record that follows has no superoxide response (% of plate) shown yet.
Record CN(Cc1c(C(=O)N(C)Cc2ccccc2)nc2ccccn12)CC1Cc2ccccc2O1 (stereo not drawn) , field superoxide response (% of plate): 105

* * *

EXPERIMENT SUMMARY: Nile Red efflux blockade in pump-expressing yeast – validation compound set, multiplex, phenotypic, pilot screen (AID 588506);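 note: Nile Red retained in cells so higher fluorescence means more efflux inhibition; 0 = negative control wells and 1 = enniatin B 25 µM full block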
MEASUREMENT CONDITIONS: S. cerevisiae pump-expressing triplex, Nile Red efflux flow cytometry; at 10 µM; stronger effect = higher value; the pumps come from Candida albicans
efflux inhibition (fraction of control): recorded values
Output: the number by itself.

# COMPOUND, VALUE KIND, RESULT
rows = [
    ("NCCCC(N)(C(=O)O)C(F)F (stereo not given)", "efflux inhibition (fraction of control)", -0.135),
    ("Cc1ncc(CN2CCC(CO)(CCc3ccccc3)CC2)s1", "efflux inhibition (fraction of control)", -0.07),
    ("CC1(c2ccccc2)CC(C)(C)N2C(=O)C(=O)c3cccc1c32 (stereo not given)", "efflux inhibition (fraction of control)", 0.15),
    ("O=C(Cc1ccccc1)NCC(=O)OCC(=O)c1ccccc1Cl", "efflux inhibition (fraction of control)", -0.42),
    ("C(=C\\c1ccc2ccccc2n1)/c1ccccc1", "efflux inhibition (fraction of control)", -0.31),
]

So for `Cn1cc(/C=C/C(=O)c2ccccc2)c2ccccc21` , the logged efflux inhibition (fraction of control) turned out to be -0.1

The value of efflux inhibition (fraction of control) measured for the compound CC(=O)N(CCC(Cc1ccccc1)c1ccco1)Cc1ccco1 (stereo not given) turned out to be -0.06

Noted for `CCCCOc1ccc(C(=O)CCN2CCCCC2)cc1` : its efflux inhibition (fraction of control) reads 0.11

Entry `CO[C@H]1C=CO[C@@]2(C)Oc3c(C)c(O)c4c(O)c(c(C=NN5CCN(C)CC5)c(O)c4c3C2=O)NC(=O)C(C)=CC=C[C@H](C)[C@H](O)[C@@H](C)[C@@H](O)[C@@H](C)[C@H](OC(C)=O)[C@@H]1C` , efflux inhibition (fraction of control) reported as 0.01

Looking up `CC(C)CC(=O)Nc1ccc2oc(-c3ccncc3)nc2c1` , I found its efflux inhibition (fraction of control) recorded as -0.02
